system: CEM cells HIV-1 protection, formazan growth assay; experiment: NCI AIDS Antiviral Assay
Entries and their EC50 values follow.

Compound	EC50
O=C(O)C(NCc1ccccc1)C(NCc1ccccc1)C(=O)O (centres undefined)	> 200 µM
O=[N+]([O-])C(=C1NCCN1)C(Cl)=C(Cl)Cl	> 200 µM
O=[N+]([O-])c1ccc2nc3ccscc-3c2c1	> 15.5 µM
C=CCSCn1ncc2ccc([N+](=O)[O-])cc21	> 200 µM
CC(C)/C(Cl)=N/OC(=O)Nc1ccc(F)c(Cl)c1	> 20 µM
O=C(O)CCCc1ccc2c(c1)CC1(C2)Cc2cc3c(cc2C1)CCCC3	> 200 µM
CC(C)/C(Cl)=N\OC(=O)NNc1ccccc1	> 20 µM
C[Si](C)(C)C1=C2C(=O)c3ccccc3C(=O)C2=C([Si](C)(C)C)[C@@H]2CCCC[C@H]12	> 50.1 µM
CCOC(=O)C12CCCC1(O)N(NC(=O)c1cccc(Cl)c1)C(C)=C2C(=O)OC (centres undefined)	> 427 µM
CC(=O)C(C(=O)CCSCCO)C(SCCO)c1ccc(Cl)c(Cl)c1 (centres undefined)	> 200 µM
O=c1c2c([nH]c3ccccc13)CSC2	> 67.6 µM
O=c1[nH]c2cc([N+](=O)[O-])ccc2nc1/C(=N/Nc1ccccc1)C(O)c1ccco1 (centres undefined)	> 234 µM
O=C1NC(=O)c2c1n(Cc1ccccc1)c(=O)n2Cc1ccccc1	> 77.6 µM
COC(=O)CCc1cccnc1/C=N/O	> 1200 µM
